Assay: amyloid nucleation score (Sup35N fusion, yeast selection) (log enrichment); library NNK1; higher = more nucleation; inactive = no reads after selection;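 also: zero at mode of non-aggregating sequences after 7 days selection at 30°C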
Entry class follows amyloid nucleation score: low value (below -0.4), medium value (-0.4 to below 0.3), high value (0.3 or more)

[[record]]
substance = "YTEIMGL"
answer_label = "medium value"

[[record]]
substance = "VEFFFDF"
answer_label = "low value"

[[record]]
substance = "NCGTVHGHADGSYVCDMGSR"
answer_label = "medium value"

[[record]]
substance = "YGGFIESLLACAKGESRNMM"
answer_label = "low value"

[[record]]
substance = "DLSSESHVFLCVAL"
answer_label = "low value"

[[record]]
substance = "KIRVILYVPRVS"
answer_label = "high value"

[[record]]
substance = "QRERMRGFKFDRLFCIRVWW"
answer_label = "low value"

[[record]]
substance = "VRFIFSRSIGLQ"
answer_label = "medium value"

[[record]]
substance = "TPYYPSQKQCRMPRGACVL"
answer_label = "low value"

[[record]]
substance = "SYIDHYITKSDAVWRVSIEQ"
answer_label = "medium value"

[[record]]
substance = "TIFIAMDFNRVGKLFYRN"
answer_label = "high value"

[[record]]
substance = "SVKGRGRGILWMLAVSECVG"
answer_label = "low value"

[[record]]
substance = "VLMVPWVDGSCSS"
answer_label = "low value"

[[record]]
substance = "LLYIILFRNYILYKLWIRFA"
answer_label = "high value"

[[record]]
substance = "VLTVAGF"
answer_label = "low value"

[[record]]
substance = "DVVEYVIWSYTWMNLAHYCR"
answer_label = "medium value"

[[record]]
substance = "HYIIIRFLNAELTLCHLRMI"
answer_label = "low value"

[[record]]
substance = "YLDLFTGSSH"
answer_label = "medium value"

[[record]]
substance = "YVIRFVKCR"
answer_label = "high value"

[[record]]
substance = "ASRYGDF"
answer_label = "high value"

[[record]]
substance = "HVYLTWTGLVGLKWCSGCSA"
answer_label = "low value"

[[record]]
substance = "RRGGFG"
answer_label = "medium value"

[[record]]
substance = "SLMGALEIQRCSAFSSFLFR"
answer_label = "high value"

[[record]]
substance = "LCISARDLNNFGRNHMHFLL"
answer_label = "medium value"

[[record]]
substance = "STNVGRILMCVQLSLWKLN"
answer_label = "medium value"

[[record]]
substance = "NVIGSGE"
answer_label = "high value"

[[record]]
substance = "IVPPLSNCSFIG"
answer_label = "medium value"

[[record]]
substance = "WCMATCLIMVCANYVICLVG"
answer_label = "high value"

[[record]]
substance = "SSSFRHAMRPSSISQRISPC"
answer_label = "high value"

[[record]]
substance = "IGHGTHG"
answer_label = "medium value"

[[record]]
substance = "CGLLVVLRANVFILCGYK"
answer_label = "high value"

[[record]]
substance = "VIMCVSRCTVRCV"
answer_label = "high value"


----------
Assay: amyloid nucleation score (Sup35N fusion, yeast selection) (log enrichment); library NNK3; higher = more nucleation; inactive = no reads after selection
ASSAY METRIC: amyloid nucleation score

[[record]]
substance = "ITGPTSVYE"
assay_metric = "amyloid nucleation score"
value_measured = "inactive"

[[record]]
substance = "GYMRSLYIRYYSRRRFRCI"
assay_metric = "amyloid nucleation score"
value_measured = "inactive"

[[record]]
substance = "GPLSHRN"
assay_metric = "amyloid nucleation score"
value_measured = "inactive"

[[record]]
substance = "YFHGFLFYSE"
assay_metric = "amyloid nucleation score"
value_measured = "inactive"

[[record]]
substance = "NYEARLSG"
assay_metric = "amyloid nucleation score"
value_measured = "inactive"

[[record]]
substance = "TMHQLHKFFLHMKGASIDSV"
assay_metric = "amyloid nucleation score"
value_measured = "inactive"

[[record]]
substance = "YVFFLSLNIKPMLYTTLVGV"
assay_metric = "amyloid nucleation score"
value_measured = -0.138

[[record]]
substance = "FGTLFSTVFRVLRFNRISAP"
assay_metric = "amyloid nucleation score"
value_measured = "inactive"

[[record]]
substance = "SNFVIVSWIVTNVLRM"
assay_metric = "amyloid nucleation score"
value_measured = 0.869

[[record]]
substance = "RSNLRLGSRDKPAIQL"
assay_metric = "amyloid nucleation score"
value_measured = "inactive"

[[record]]
substance = "GNIVLMMSYILM"
assay_metric = "amyloid nucleation score"
value_measured = 2.3

[[record]]
substance = "MGEPGVDAFNRLTPKWCLIP"
assay_metric = "amyloid nucleation score"
value_measured = "inactive"

[[record]]
substance = "DIRYLISSTRYLDVMEGFLV"
assay_metric = "amyloid nucleation score"
value_measured = "inactive"

[[record]]
substance = "LTRLLGDLIPPVNMGARECD"
assay_metric = "amyloid nucleation score"
value_measured = "inactive"

[[record]]
substance = "TCFFISSIFSFDKHVIVCCA"
assay_metric = "amyloid nucleation score"
value_measured = 0.536

[[record]]
substance = "SNHVWFDLFGEYDASCFCTV"
assay_metric = "amyloid nucleation score"
value_measured = "inactive"

[[record]]
substance = "SSRVNKGEVARLVVSIPIIH"
assay_metric = "amyloid nucleation score"
value_measured = "inactive"

[[record]]
substance = "ASGVATSFGFRLWSCVEDIE"
assay_metric = "amyloid nucleation score"
value_measured = "inactive"

[[record]]
substance = "QVLWTGEMDSMICWA"
assay_metric = "amyloid nucleation score"
value_measured = "inactive"

[[record]]
substance = "TVRKHLLLDHKWYVVNSEIT"
assay_metric = "amyloid nucleation score"
value_measured = "inactive"

[[record]]
substance = "YFMVEVMLILMSDGAFYTFC"
assay_metric = "amyloid nucleation score"
value_measured = "inactive"

[[record]]
substance = "SSFQSYYTSSDMTEF"
assay_metric = "amyloid nucleation score"
value_measured = "inactive"

[[record]]
substance = "RCGYHFHQVAFFTKDVKVVE"
assay_metric = "amyloid nucleation score"
value_measured = "inactive"

[[record]]
substance = "NNLFELPWKFYEQRNVAELM"
assay_metric = "amyloid nucleation score"
value_measured = "inactive"

[[record]]
substance = "FNPCRGCYETKFHVYRLSRL"
assay_metric = "amyloid nucleation score"
value_measured = 0.584

[[record]]
substance = "GDSLMMYQQDWISEVLICLA"
assay_metric = "amyloid nucleation score"
value_measured = "inactive"

[[record]]
substance = "FKGPVDCSVIV"
assay_metric = "amyloid nucleation score"
value_measured = "inactive"

[[record]]
substance = "LRRYVARNRRSYFTESLPRA"
assay_metric = "amyloid nucleation score"
value_measured = -0.123

[[record]]
substance = "KMDLFVRIVSCLVNGCQTTG"
assay_metric = "amyloid nucleation score"
value_measured = "inactive"

[[record]]
substance = "MAVSRK"
assay_metric = "amyloid nucleation score"
value_measured = "inactive"

[[record]]
substance = "GYQNVSTHRVKALAHRIWVG"
assay_metric = "amyloid nucleation score"
value_measured = "inactive"

[[record]]
substance = "FCKLYINQYIYHDSVVVIVG"
assay_metric = "amyloid nucleation score"
value_measured = 2.41

[[record]]
substance = "LDAFRRLLEGASRTKCTF"
assay_metric = "amyloid nucleation score"
value_measured = "inactive"

[[record]]
substance = "PKSLLVPIIRPMQVWRKFDL"
assay_metric = "amyloid nucleation score"
value_measured = "inactive"

[[record]]
substance = "MLFVEFSMGSHCRET"
assay_metric = "amyloid nucleation score"
value_measured = 1.53

[[record]]
substance = "FYNVRF"
assay_metric = "amyloid nucleation score"
value_measured = "inactive"

[[record]]
substance = "MFNFEFLC"
assay_metric = "amyloid nucleation score"
value_measured = 2.33


----------
Experiment: amyloid nucleation score (Sup35N fusion, yeast selection) (log enrichment); library NNK3; higher = more nucleation; inactive = no reads after selection
ASSAY METRIC: amyloid nucleation score

[[record]]
substance = "ALMRVSSLCHLSGKVCLTLA"
value_measured = "inactive"

[[record]]
substance = "GEILSGITTLGVYYSYVWHL"
value_measured = "inactive"

[[record]]
substance = "RVPACAYACLAYGGYDDMAG"
value_measured = "inactive"

[[record]]
substance = "VSGYNW"
value_measured = "inactive"

[[record]]
substance = "LRWYPDSCYVSV"
value_measured = "inactive"

[[record]]
substance = "GITMFGLHMYQNDCLEVAWL"
value_measured = 0.904

[[record]]
substance = "YHSLYTAPDEGLFYRNRRKF"
value_measured = "inactive"

[[record]]
substance = "INSEWIQSSAMFHPIMGRFR"
value_measured = -0.188

[[record]]
substance = "SLSNSVWINFARNGLSSLCQ"
value_measured = "inactive"

[[record]]
substance = "LYMYYWLSYVV"
value_measured = "inactive"

[[record]]
substance = "AGNAFVDR"
value_measured = "inactive"

[[record]]
substance = "NSGYVYGIQCNVWVLAFMGF"
value_measured = 2.7

[[record]]
substance = "DNDVHKELFSPAASLSSTWS"
value_measured = "inactive"

[[record]]
substance = "MDAYRNHFMFTIIKFYSCES"
value_measured = "inactive"

[[record]]
substance = "YSGSCNFVQVSVFKHWSGVY"
value_measured = "inactive"

[[record]]
substance = "RRKLRGALTVEMVFSPVYRR"
value_measured = "inactive"

[[record]]
substance = "NWLMSTTFRAYGV"
value_measured = "inactive"

[[record]]
substance = "NKPGVV"
value_measured = "inactive"

[[record]]
substance = "YRCYVVVSCWIHLNIKWLMY"
value_measured = "inactive"

[[record]]
substance = "PRPLGLFTSYDNGLGYRQGQ"
value_measured = "inactive"

[[record]]
substance = "MLSGWFGLMIGCTAVVWSDS"
value_measured = "inactive"

[[record]]
substance = "NAGYCVRTRSLGESLSIVRK"
value_measured = "inactive"

[[record]]
substance = "SRRNIPVGGLSNWLPVWSVG"
value_measured = "inactive"

[[record]]
substance = "LSVLFCLDGK"
value_measured = "inactive"

[[record]]
substance = "YCVWFPSVCFIRRYVSIRLI"
value_measured = "inactive"

[[record]]
substance = "SFSPFVTFNKWSRWGLRNIG"
value_measured = "inactive"

[[record]]
substance = "WVCYNKFSVCVWLVDKAD"
value_measured = 2.01

[[record]]
substance = "CVYNRLNMF"
value_measured = -0.296

[[record]]
substance = "SGIMSHVGGTELLNSLHLMF"
value_measured = "inactive"

[[record]]
substance = "KFLITETGSEL"
value_measured = "inactive"

[[record]]
substance = "SKLLIPHNNGRYSFFWSIGM"
value_measured = 2.04

[[record]]
substance = "RDIQYLCKYLRSMMHRGQAH"
value_measured = "inactive"

[[record]]
substance = "TSLDCYLMRLFLGWEALKVW"
value_measured = "inactive"

[[record]]
substance = "TVFSDFSGSKEMTVTIRRWV"
value_measured = "inactive"

[[record]]
substance = "GDNHSQD"
value_measured = 0.37

[[record]]
substance = "ADWYWFMAMQRNNLL"
value_measured = "inactive"

[[record]]
substance = "NIIYYTTVGHVHSVW"
value_measured = 1.04

[[record]]
substance = "KFYDHTLCFVDWRDFSW"
value_measured = "inactive"

[[record]]
substance = "HSKFWFCLFRIFQVSGLFNR"
value_measured = "inactive"

[[record]]
substance = "CLSYITLPRCLCAHRFKLG"
value_measured = "inactive"

[[record]]
substance = "RVLDNTSSCRERNVGGDSFA"
value_measured = "inactive"

[[record]]
substance = "QLALPHKPHWGNWL"
value_measured = "inactive"

[[record]]
substance = "VMCLRRMSFQCMQSQMEALA"
value_measured = "inactive"

[[record]]
substance = "YKSVYMRF"
value_measured = 0.709

[[record]]
substance = "FVAADSPGVSSFKAN"
value_measured = "inactive"

[[record]]
substance = "ELFILHSGGGWCSGI"
value_measured = 0.926

[[record]]
substance = "TSEVVQ"
value_measured = "inactive"

[[record]]
substance = "SGVYLSGSSLVCNTFFGTNQ"
value_measured = 1.78

[[record]]
substance = "RCDVRFSWLIPSGLE"
value_measured = 1.56

[[record]]
substance = "AMILVRVYGVKRVWAYLLVW"
value_measured = "inactive"

[[record]]
substance = "DCMNGLVCFFMMCRGSLIRD"
value_measured = "inactive"

[[record]]
substance = "CVQRVREYVGT"
value_measured = "inactive"

[[record]]
substance = "LIPASLKADRQCAHSRYSR"
value_measured = "inactive"

[[record]]
substance = "IDNMAVIYWTVNFVCRVW"
value_measured = 1.26

[[record]]
substance = "MIWAEQGFFVRWWDLFA"
value_measured = "inactive"

[[record]]
substance = "LILAQVLWFGFETGGKLETM"
value_measured = "inactive"

[[record]]
substance = "ALLFHLG"
value_measured = "inactive"

[[record]]
substance = "TSVSPRHLVSTSTMICSFAH"
value_measured = "inactive"

[[record]]
substance = "VHFCWNADVSLHITLVGINS"
value_measured = "inactive"

[[record]]
substance = "RWCFCWICHYLDVLCHYCLH"
value_measured = "inactive"

[[record]]
substance = "RWVKSKFAV"
value_measured = "inactive"

[[record]]
substance = "CEKGLFLFSFSKFTSYPPGM"
value_measured = -0.435

[[record]]
substance = "FVLFGGWLPRVQRLSLGTGR"
value_measured = "inactive"

[[record]]
substance = "RWTLYSLSTYYQLCF"
value_measured = 0.685

[[record]]
substance = "IWILRKVVLRVVWMRYLGVK"
value_measured = "inactive"

[[record]]
substance = "HGKSYILVWCMRHSRTECVR"
value_measured = "inactive"

[[record]]
substance = "WMGSVCSFRSIPCSMSTLR"
value_measured = "inactive"

[[record]]
substance = "LNMLKVLFSWIRYDGNQ"
value_measured = "inactive"

[[record]]
substance = "FNSGCYT"
value_measured = "inactive"

[[record]]
substance = "NTFVPVLVFGFYYVLIMISN"
value_measured = "inactive"

[[record]]
substance = "AVMLREITNIRTKRSRNAMM"
value_measured = "inactive"

[[record]]
substance = "TISATLVYQ"
value_measured = "inactive"

[[record]]
substance = "RSFFSWAMNMRGLARWAWME"
value_measured = 1.78

